Molecular target: T1, Histidine-tagged canine PD-1 protein (canine)
T1 sequence: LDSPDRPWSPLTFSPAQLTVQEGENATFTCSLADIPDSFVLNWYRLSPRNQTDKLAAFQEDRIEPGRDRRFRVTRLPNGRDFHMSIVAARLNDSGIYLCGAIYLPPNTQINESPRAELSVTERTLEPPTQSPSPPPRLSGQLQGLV
Test: SPR (Biacore), dPD-1-His amine-coupled to CM5 chip, antibody injected, 1:1 Langmuir fit
# strict inequality: kon < 600000 M⁻¹ s⁻¹ yields yes (1), everything else yields no (0)

I'd appreciate it if you could check whether 1D8-mHvKv-dIgG4 (antibody, V domains shown) VH: EVQLVESGGDLVKPGGSLKLSCAASGFTFNNFGMSWVRQNPDKRLEWVATLSSGSSYTYYSDSVKGRFTISRDNAKNTLYLQMNSLKSEDTAMYYCTRGESRFAYWGQGTLVTVSA VL: GVVITQDELSNPVTSGESVSISCRSSKSLLYKDGKTYLNWFLQRPGQSPQLLIYLMSTRASGVSDRFSGSGSGTDFTLEISRVKAEDVGVYYCQQLIEYPLTFGAGTKLELKR has kon smaller than 600000 M⁻¹ s⁻¹.
no (0)

Sourced from patent US20220324978A1
